target: Induced myeloid leukemia cell differentiation protein Mcl-1 (Homo sapiens, UniProt Q07820); format: functional
Sequence (Q07820 whole entry): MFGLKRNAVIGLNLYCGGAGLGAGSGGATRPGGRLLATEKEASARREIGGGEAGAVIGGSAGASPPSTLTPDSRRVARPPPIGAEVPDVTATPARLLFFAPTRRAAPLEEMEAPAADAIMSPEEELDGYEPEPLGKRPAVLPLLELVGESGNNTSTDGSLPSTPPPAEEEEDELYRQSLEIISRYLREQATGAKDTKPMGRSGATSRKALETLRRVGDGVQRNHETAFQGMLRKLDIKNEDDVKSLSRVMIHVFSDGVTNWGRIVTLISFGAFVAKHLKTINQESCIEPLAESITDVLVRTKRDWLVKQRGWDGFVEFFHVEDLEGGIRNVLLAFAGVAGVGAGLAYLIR
Active and inactive are the calls of the source.
Measure: IC50

Reference set, count: 6
C=CCOc1c(OC)cc(/C=N/Nc2cccc(C(=O)O)c2)c(Br)c1Br	5.84 µM (not active)
Cc1oc(-c2ccc(Cl)cc2)cc1-c1nn2c(-c3ccoc3C)nnc2s1	3.8 µM (not active)
COc1ccc(C(=O)O)cc1NC(=S)NC(=O)c1ccc(-c2ccc(Cl)cc2)o1	7.13 µM (not active)
COc1ccc(/C=N/NC(=O)c2ccc(O)cc2O)cc1CSc1ccccn1	3.42 µM (active)
CC(C)Oc1ccc(C(=O)Nc2ccc(N(C)C)cc2)cc1	4.48 µM (not active)
Clc1cccc(N/N=C/c2ccc(N3CCOCC3)s2)c1	13.4 µM (active)

Turning to the following compound.
Identify the reported IC50 for the following entry. `O=C(COc1cccnc1[N+](=O)[O-])c1ccc(Cl)s1`
3.78 µM (active)

---

Biological target: Sentrin-specific protease 6 (Homo sapiens);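 also: Luminescence-based dose-response confirmatory assay of SENP6 inhibition, following up an ultra-high-throughput screen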
Sequence (Q9GZR1 whole entry): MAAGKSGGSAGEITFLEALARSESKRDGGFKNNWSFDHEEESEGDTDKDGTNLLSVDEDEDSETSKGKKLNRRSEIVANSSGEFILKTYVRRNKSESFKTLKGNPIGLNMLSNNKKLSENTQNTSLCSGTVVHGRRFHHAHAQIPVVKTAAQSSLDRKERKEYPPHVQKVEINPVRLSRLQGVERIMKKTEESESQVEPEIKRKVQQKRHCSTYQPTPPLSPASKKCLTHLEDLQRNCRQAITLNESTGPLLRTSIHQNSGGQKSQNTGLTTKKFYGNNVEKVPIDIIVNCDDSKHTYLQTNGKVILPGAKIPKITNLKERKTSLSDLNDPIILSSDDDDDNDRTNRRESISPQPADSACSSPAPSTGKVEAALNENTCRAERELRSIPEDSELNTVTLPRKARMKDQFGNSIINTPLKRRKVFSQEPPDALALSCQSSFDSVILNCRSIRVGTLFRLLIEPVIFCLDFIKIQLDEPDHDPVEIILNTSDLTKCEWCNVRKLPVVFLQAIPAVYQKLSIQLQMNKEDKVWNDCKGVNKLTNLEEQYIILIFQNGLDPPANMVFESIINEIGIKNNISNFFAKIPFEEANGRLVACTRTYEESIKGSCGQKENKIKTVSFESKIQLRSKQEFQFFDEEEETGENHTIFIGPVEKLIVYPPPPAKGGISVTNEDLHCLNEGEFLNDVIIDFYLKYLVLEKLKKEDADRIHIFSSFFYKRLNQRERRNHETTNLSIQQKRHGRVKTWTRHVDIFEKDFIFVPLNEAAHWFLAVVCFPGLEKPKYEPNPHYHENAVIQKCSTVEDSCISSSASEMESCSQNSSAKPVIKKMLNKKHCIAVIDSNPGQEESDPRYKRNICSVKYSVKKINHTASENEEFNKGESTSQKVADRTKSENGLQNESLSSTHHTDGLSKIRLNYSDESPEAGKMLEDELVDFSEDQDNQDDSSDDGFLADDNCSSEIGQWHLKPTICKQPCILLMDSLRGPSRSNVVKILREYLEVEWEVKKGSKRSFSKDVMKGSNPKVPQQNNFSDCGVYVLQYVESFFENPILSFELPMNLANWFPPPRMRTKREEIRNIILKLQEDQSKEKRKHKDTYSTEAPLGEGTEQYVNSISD
Format: functional
Activity calls are given as the source filed them.
Respond using exactly one of the listed classes: true (1) = active, false (0) = inactive

Worked examples follow.
O=c1oc2c(O)cccc2cc1-c1nc2ccccc2[nH]1	true (1)
CCOC(=O)c1sc(NC(=O)c2ccc(C)s2)cc1C	false (0)
C=CCn1c(NC(=O)c2ccccc2Cl)c(C#N)c2nc3ccccc3nc21	true (1)
CC1=NN(C(N)=S)C(=O)C1N=Nc1ccccc1 (stereo not given)	true (1)

Name the outcome recorded for `CCOC(=O)c1ccc(Nc2cc3ccccc3c(O)n2)cc1` in the assay.
true (1)

---

target: Coagulation factor XII (Homo sapiens); format: functional;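 also: activated factor XIIa alpha cleaving a fluorogenic AMC peptide substrate; inhibitor potency from loss of enzyme activity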
Calls of active or inactive are those of the source.
Respond using exactly one of the listed classes: active, inactive

CCN1C(=O)c2[nH]nc(C(=O)OC)c2C1=O	inactive

Name the outcome recorded for `O=C(Nc1nnc(-c2ccccc2)s1)c1cc(S(=O)(=O)N2CCOCC2)c(Cl)cc1Cl` in the assay.
inactive

Name the outcome recorded for `Cc1ccc(S(=O)(=O)NCC(=O)OCC(=O)Nc2ncc(Cl)cc2Cl)cc1` in the assay.
inactive

Name the outcome recorded for `Cc1ccc(C(=O)NCCN2CCNC2=O)cc1` in the assay.
inactive

Name the outcome recorded for `NC(=O)/C(=N\OC(=O)c1ccco1)c1nc(-c2ccc(Br)cc2)cs1` in the assay.
active

Name the outcome recorded for `Cc1cc(C)n(C(=O)CNc2cccc(Cl)c2C)n1` in the assay.
inactive

---

biological target: Aminopeptidase N (Plasmodium falciparum FcB1/Columbia); assay: malaria alanyl aminopeptidase activity blockers – biochemical, fluorogenic H-Leu-NHMec substrate, 1536-well (AID 1445); parameters: species or system Plasmodium falciparum 3D7, 3D7
Sequence (O96935 whole entry): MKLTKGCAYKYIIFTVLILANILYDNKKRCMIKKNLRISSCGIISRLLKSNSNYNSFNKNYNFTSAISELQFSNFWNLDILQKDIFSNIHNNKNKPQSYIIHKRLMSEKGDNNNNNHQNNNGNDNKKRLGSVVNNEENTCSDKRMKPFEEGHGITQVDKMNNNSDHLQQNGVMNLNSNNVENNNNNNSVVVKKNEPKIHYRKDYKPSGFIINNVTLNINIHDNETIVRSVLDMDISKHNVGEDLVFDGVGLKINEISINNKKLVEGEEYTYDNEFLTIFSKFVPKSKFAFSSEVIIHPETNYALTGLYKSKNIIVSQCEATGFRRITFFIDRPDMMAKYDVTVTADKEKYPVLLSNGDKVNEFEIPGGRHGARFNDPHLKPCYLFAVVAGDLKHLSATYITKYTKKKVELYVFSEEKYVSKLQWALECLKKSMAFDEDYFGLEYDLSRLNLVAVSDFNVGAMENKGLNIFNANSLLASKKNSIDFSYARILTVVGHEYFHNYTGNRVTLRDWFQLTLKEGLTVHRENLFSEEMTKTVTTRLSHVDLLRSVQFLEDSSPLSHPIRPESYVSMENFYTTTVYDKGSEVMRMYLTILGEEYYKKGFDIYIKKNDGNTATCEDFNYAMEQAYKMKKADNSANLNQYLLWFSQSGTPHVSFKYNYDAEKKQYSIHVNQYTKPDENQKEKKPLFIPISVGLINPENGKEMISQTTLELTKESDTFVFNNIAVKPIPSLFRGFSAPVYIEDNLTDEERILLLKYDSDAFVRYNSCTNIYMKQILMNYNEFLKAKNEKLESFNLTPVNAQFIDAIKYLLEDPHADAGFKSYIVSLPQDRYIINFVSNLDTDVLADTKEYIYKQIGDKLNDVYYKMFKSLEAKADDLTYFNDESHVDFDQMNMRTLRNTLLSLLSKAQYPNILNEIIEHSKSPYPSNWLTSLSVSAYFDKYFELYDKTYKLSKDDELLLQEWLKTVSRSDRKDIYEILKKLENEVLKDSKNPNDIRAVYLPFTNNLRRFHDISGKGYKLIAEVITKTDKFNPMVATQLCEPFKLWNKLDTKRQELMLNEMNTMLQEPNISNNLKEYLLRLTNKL
Calls of active or inactive are those of the source.
Field: IC50. Provide a value for each of the molecules that follow.

Reference set, count: 3
COc1ccc(NC(=O)C2C3C=CC(C3)C2C(=O)NCc2ccco2)c(OC)c1 (centres undefined)	89.2 µM (active)
C=C(C)c1cccc(C(C)(C)NC(=O)Nc2ccc(C)cn2)c1	41.3 µM (active)
N#C/C(=C(/O)CSc1nnc(Cc2cccs2)n1C1CCCCC1)c1nc2ccccc2[nH]1	78.9 µM (active)

State measured IC50 of the molecule `NC(=O)N/N=C\c1cc(Br)ccc1O` with Aminopeptidase N (Plasmodium falciparum FcB1/Columbia).
50.6 µM (active)

---

Field: EC50. Provide a value for each of the compounds that follow.
test: viability of PTEN-deleted HCT116 cells – cell-based, HCT116 PTEN knockout, dose response (AID 1047); assay type: functional;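 also: HCT116 colon tumor cells with PTEN knocked out; cells exposed to compound for 60 hours before readout; potency for loss of cell viability measured by luminescence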
Calls of active or inactive are those of the source.

Reference set, count: 3
CCCn1c(SCC(=O)c2ccc3c(c2)NC(=O)CO3)nc2ccccc21	22.4 µM (active)
O=C(Nc1ccc(F)cc1)Nc1nnc(-c2ccncc2)s1	22.4 µM (active)
CCOc1ccc2nc(NC(=O)c3cc([N+](=O)[O-])ccc3N3CCOCC3)sc2c1	23.3 µM (active)

Turning to the following compound.
Identify the reported EC50 for the following entry. `ClC(Cl)(c1nnnn1-c1ccccc1)c1nnnn1-c1ccccc1`
10.8 µM (active)

---

target: Nonstructural protein 1 (Influenza A virus, UniProt Q194T2); format: functional, Influenza A virus (A/California/07/2009(H1N1))
Sequence (Q194T2 whole entry): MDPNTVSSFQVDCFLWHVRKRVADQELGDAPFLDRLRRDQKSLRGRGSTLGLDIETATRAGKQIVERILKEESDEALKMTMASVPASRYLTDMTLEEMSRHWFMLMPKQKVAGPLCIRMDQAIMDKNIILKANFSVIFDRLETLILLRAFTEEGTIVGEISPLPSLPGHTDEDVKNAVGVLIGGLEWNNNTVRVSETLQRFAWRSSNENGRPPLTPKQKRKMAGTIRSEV
Calls of active or inactive are those of the source.
Measure: IC50

COc1ccccc1NC(=O)CSc1nn2c(=O)c(C)nnc2s1	16.1 µM (active)
c1ccc(-c2n[nH]c(-c3ccncc3)n2)nc1	9.19 µM (active)
NC(=S)N/N=C/c1cccc(O)c1O	4.5 µM (active)
COC1=C(Nc2ccc(C)cc2)C(=O)c2ccccc2C1=O	10 µM (active)

Turning to the following molecule.
Identify the reported IC50 for the following entry. `O=C(N/N=C/c1c(O)ccc2ccccc12)c1cccnc1`
12.1 µM (active)

---

biological target: Sentrin-specific protease 7 (Homo sapiens); format: functional;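 also: Luminescence-based dose-response confirmation of ultra-high-throughput screening hits, measuring inhibition of SENP7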
Sequence (Q9BQF6 whole entry): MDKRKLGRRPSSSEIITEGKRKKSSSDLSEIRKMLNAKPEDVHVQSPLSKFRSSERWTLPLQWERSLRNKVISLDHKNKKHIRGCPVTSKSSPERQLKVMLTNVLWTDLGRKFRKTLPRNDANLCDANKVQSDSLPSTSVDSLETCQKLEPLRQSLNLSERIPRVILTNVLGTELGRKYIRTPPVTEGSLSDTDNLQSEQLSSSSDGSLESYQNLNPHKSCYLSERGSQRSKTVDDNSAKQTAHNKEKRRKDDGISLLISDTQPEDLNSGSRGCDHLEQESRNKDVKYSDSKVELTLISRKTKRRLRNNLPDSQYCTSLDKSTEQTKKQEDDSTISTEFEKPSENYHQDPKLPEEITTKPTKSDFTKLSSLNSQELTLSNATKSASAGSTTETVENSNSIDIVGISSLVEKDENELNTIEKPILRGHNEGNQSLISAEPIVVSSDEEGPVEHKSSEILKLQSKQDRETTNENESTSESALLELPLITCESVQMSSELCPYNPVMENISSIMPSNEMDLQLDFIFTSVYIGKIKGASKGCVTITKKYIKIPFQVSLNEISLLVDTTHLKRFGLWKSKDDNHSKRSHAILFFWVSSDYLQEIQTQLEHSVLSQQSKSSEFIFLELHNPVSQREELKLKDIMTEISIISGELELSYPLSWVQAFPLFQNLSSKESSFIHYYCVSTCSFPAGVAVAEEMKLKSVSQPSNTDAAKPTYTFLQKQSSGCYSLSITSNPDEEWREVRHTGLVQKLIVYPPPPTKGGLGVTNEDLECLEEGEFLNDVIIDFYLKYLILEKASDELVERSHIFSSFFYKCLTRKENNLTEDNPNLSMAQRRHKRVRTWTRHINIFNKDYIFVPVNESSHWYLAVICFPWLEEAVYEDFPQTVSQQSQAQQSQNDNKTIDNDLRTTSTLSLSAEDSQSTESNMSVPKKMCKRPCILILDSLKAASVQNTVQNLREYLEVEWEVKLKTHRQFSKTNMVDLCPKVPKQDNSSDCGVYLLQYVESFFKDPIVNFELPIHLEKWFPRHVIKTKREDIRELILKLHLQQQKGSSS
Activity calls are given as the source filed them.
Measure: IC50

Reference set, count: 4
CCOC(=O)c1ccc(Nc2cc3ccccc3c(O)n2)cc1	10.1 µM (active)
O=c1oc2c(O)cccc2cc1-c1nc2ccccc2[nH]1	0.955 µM (active)
C=CCn1c(NC(=O)c2ccccc2Cl)c(C#N)c2nc3ccccc3nc21	3.08 µM (active)
CCOC(=O)c1sc(NC(=O)c2ccc(C)s2)cc1C	4.46 µM (active)

Turning to the following compound.
Identify the reported IC50 for the following entry. CC1=NN(C(N)=S)C(=O)C1N=Nc1ccccc1 (stereo not given)
5.13 µM (active)

---

Field: IC50. Provide a value for each of the molecules that follow.
molecular target: Large T antigen (Simian virus 40); type: functional, Betapolyomavirus macacae;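 also: Confirmatory-stage PubChem screen for compounds that inhibit SV40 T antigen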
Sequence (P03070 whole entry): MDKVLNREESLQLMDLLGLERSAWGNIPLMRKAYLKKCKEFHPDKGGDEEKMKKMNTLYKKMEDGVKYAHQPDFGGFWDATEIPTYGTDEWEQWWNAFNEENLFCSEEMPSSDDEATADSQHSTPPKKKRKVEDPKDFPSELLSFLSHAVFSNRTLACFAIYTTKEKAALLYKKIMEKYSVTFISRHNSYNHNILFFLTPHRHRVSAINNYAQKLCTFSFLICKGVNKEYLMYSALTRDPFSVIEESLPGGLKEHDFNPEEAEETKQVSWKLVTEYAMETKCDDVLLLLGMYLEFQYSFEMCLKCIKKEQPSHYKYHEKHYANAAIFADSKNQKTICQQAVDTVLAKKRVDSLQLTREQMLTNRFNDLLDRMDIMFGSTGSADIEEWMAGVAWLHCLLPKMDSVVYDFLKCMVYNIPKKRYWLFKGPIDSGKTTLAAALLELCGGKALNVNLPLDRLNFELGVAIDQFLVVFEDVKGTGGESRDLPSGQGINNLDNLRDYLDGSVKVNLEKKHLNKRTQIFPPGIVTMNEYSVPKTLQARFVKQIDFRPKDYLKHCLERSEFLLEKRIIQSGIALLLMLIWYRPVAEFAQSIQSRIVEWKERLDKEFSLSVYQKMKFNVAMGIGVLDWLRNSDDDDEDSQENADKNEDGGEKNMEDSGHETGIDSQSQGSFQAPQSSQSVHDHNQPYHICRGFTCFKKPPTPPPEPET
Calls of active or inactive are those of the source.

Reference set, count: 5
COc1cc(/C=C2\N=C3CCCCCN3C2=O)ccc1O	9.11 µM (active)
CC(C)Oc1ccc(C(=O)Nc2ccc(N(C)C)cc2)cc1	25.3 µM (active)
Cn1c(=O)c2c(nc(S)n2Cc2ccc(Cl)cc2)n(C)c1=O	16.2 µM (active)
COc1cc(/C=N/NC(=O)CC#N)cc(Br)c1O	9.57 µM (active)
COc1cc(/C=N/NC(=O)C(=O)NCc2ccco2)ccc1O	12.9 µM (active)

Parameters: items (list). Returns: IC50 for each item.
1. Sc1nnc(-c2ccc(Cl)cc2)n1/N=C/C=C/c1ccco1
2. O=C1/C(=C/c2ccncc2)SC(=S)N1Nc1ccccc1
3. ClC(Cl)(c1nnnn1-c1ccccc1)c1nnnn1-c1ccccc1
4. O=C(COc1cccnc1[N+](=O)[O-])c1ccc(Cl)s1

69.2 µM (active)
12.7 µM (active)
5.47 µM (active)
67.7 µM (active)

Parameters: items (list). Returns: IC50 for each item.
1. COc1ccc(N2CCC(CN=C(S)Nc3c(C)cccc3C)C2)cc1 (configuration not stated)
2. C=CCn1c(SCC(C)=O)nc2scc(-c3ccco3)c2c1=O
3. O=C1C2C3C=CC(CC3)C2C(=O)N1/N=C/c1ccc(O)c(O)c1 (configuration not stated)

14.6 µM (active)
60.2 µM (active)
4.4 µM (active)
